- Tested on: HCT-15 colon
- Assay details: NCI tumour cell line growth inhibition, 48 h
This section presents molecules with their documented TGI values.

{"Molecule": "COc1ccc(-c2cc(=O)c3c(O)c(O)c(OC)cc3o2)cc1O", "System under test": "HCT-15 colon", "Bound type": ">", "TGI, µM": 100}
{"Molecule": "Cc1cccc(CNc2c3ccccc3nc3ccccc23)c1", "System under test": "HCT-15 colon", "Bound type": "=", "TGI, µM": 4.59}
{"Molecule": "O=c1[nH]c2nc3ccccc3c(=O)n2nc1Cc1ccccc1", "System under test": "HCT-15 colon", "Bound type": ">", "TGI, µM": 100}
{"Molecule": "O=C(O)c1ccc2c(O)c(O)ccc2c1", "System under test": "HCT-15 colon", "Bound type": "=", "TGI, µM": 55}
{"Molecule": "O=C(NC(=S)Nc1ccc(Br)cc1)c1ccc2c(c1)Sc1ccccc1O2", "System under test": "HCT-15 colon", "Bound type": ">", "TGI, µM": 100}
{"Molecule": "N=c1oc2ccc3ccccc3c2cc1-c1nc2ccccc2c(=O)[nH]1", "System under test": "HCT-15 colon", "Bound type": ">", "TGI, µM": 100}
{"Molecule": "COC1CCCc2c(OC(C)=O)ccc(OC(C)=O)c21 (stereo not given)", "System under test": "HCT-15 colon", "Bound type": ">", "TGI, µM": 100}
{"Molecule": "COc1ccc(N2C(=O)C3ON(Cc4ccc(CC(N)=O)cc4)C(c4c5ccccc5c(C)c5ccccc45)C3C2=O)cc1 (stereo not given)", "System under test": "HCT-15 colon", "Bound type": "=", "TGI, µM": 74.9}
{"Molecule": "Nc1cc(CO)cc(Nc2c3ccccc3nc3ccccc23)c1", "System under test": "HCT-15 colon", "Bound type": "=", "TGI, µM": 34.4}
{"Molecule": "CC(=O)OC1(Sc2ccccc2)CC2[C@H]3COC(C)(C)O[C@H]3CC[C@@]2(C)CC1=O (stereo not given in full)", "System under test": "HCT-15 colon", "Bound type": ">", "TGI, µM": 100}

----------
Recorded TGI values for a group of molecules are listed next.
- Test system: HCC-2998 colon
- Assay details: NCI tumour cell line growth inhibition, 48 h

{"Chemical smiles": "CCN(CC)CCC(=O)/C=C/c1ccc(Cl)c(Cl)c1", "TGI": "> 10 µM"}
{"Chemical smiles": "COc1ccc(CCN2CCCn3c2nc2ccccc2c3=O)cc1", "TGI": "> 100 µM"}
{"Chemical smiles": "OCc1c(-c2cccs2)oc(-c2cccs2)c1CO", "TGI": "45.6 µM"}
{"Chemical smiles": "O=C(c1ccc(Cl)cc1Cl)N1CCN(C(=O)c2ccc(Cl)cc2Cl)C1=S", "TGI": "44.4 µM"}
{"Chemical smiles": "Cc1c(C)c2cc3c(=O)c(CCl)coc3c(C)c2oc1=O", "TGI": "> 100 µM"}
{"Chemical smiles": "CN(C)N1C(=O)C(=O)N(c2cccc3ccccc23)C1=O", "TGI": "> 10 µM"}

----------
- Tested on: KM12 colon
- Assay details: NCI tumour cell line growth inhibition, 48 h
# key: entry, value: GI50
Measure name: GI50

{"Chemical smiles": "COc1ccc(-n2cc(-c3cc(OC)c(OC)c(OC)c3)nc2SCc2cccc(C#N)c2)cc1OC", "System under test": "KM12 colon", "Measure name": "GI50", "Measured": "> 100 µM"}
{"Chemical smiles": "OCc1c(-c2cccs2)oc(-c2cccs2)c1CO", "System under test": "KM12 colon", "Measure name": "GI50", "Measured": "21.3 µM"}
{"Chemical smiles": "CN(C)CCNC(=O)c1ccc2c(c1)oc1cc3ccccc3c(=O)n12", "System under test": "KM12 colon", "Measure name": "GI50", "Measured": "17 µM"}
{"Chemical smiles": "COc1ccc(-c2cn(C)c3c2-n2cccc2C3=O)cc1O", "System under test": "KM12 colon", "Measure name": "GI50", "Measured": "3.71 µM"}
{"Chemical smiles": "CCCC(=O)Oc1ccc(/C(=C(\\C)c2ccc(Cl)cc2)c2ccc(OCCN(CC)CC)cc2)cc1", "System under test": "KM12 colon", "Measure name": "GI50", "Measured": "3.05 µM"}
{"Chemical smiles": "COc1cc(C[C@H]2COC(=O)[C@]2(O)Cc2ccc(OCc3ccccc3)c(OC)c2)ccc1OCc1ccccc1", "System under test": "KM12 colon", "Measure name": "GI50", "Measured": "7.3 µM"}
{"Chemical smiles": "COc1cc(/C=C/C(=O)c2c(C)n([O-])c3ccccc3[n+]2=O)cc(OC)c1OC", "System under test": "KM12 colon", "Measure name": "GI50", "Measured": "10.7 µM"}
{"Chemical smiles": "Cc1cc(NC(=O)NCCOc2ccc(N3C(N)=NC(N)=NC3(C)C)cc2Cl)ccc1S(=O)(=O)F", "System under test": "KM12 colon", "Measure name": "GI50", "Measured": "1.04 µM"}

----------
- Test system: IGROV1 ovarian
- Assay details: NCI tumour cell line growth inhibition, 48 h
Listing: TGI of selected molecules

{"Molecule": "COc1cc(/C=C/C(=O)CC(=O)/C=C/c2cc(C)c(O)c(OC)c2)cc(C)c1O", "System under test": "IGROV1 ovarian", "TGI": "> 100 µM"}
{"Molecule": "O=C(Cn1c2ccc(Br)cc2c2nc3ccccc3nc21)NCc1ccccc1", "System under test": "IGROV1 ovarian", "TGI": "> 100 µM"}
{"Molecule": "N#CN1CC[C@@H]2CC3(CCC2C1)OCCO3 (stereo not given in full)", "System under test": "IGROV1 ovarian", "TGI": "> 100 µM"}
{"Molecule": "OCc1c(-c2cccs2)oc(-c2cccs2)c1CO", "System under test": "IGROV1 ovarian", "TGI": "> 100 µM"}
{"Molecule": "COc1ccc(-n2cc(-c3cc(OC)c(OC)c(OC)c3)nc2SCc2cccc(C#N)c2)cc1OC", "System under test": "IGROV1 ovarian", "TGI": "> 100 µM"}
{"Molecule": "O=C1OC(C(O)CO)C(C(O)CO)OC1=O (stereo not given)", "System under test": "IGROV1 ovarian", "TGI": "> 10 µM"}
{"Molecule": "COc1ccc(/C=C\\c2cc(OC)c(OC)c(OC)c2)cc1NC(=O)/C=C/c1ccc(OC)c(OC)c1", "System under test": "IGROV1 ovarian", "TGI": "> 100 µM"}
{"Molecule": "C=CCCC(O)c1cc(C)c(O)c(C)c1 (stereo not given)", "System under test": "IGROV1 ovarian", "TGI": "> 100 µM"}
{"Molecule": "O=C1c2ccccc2C(=O)c2c1ccc1conc21", "System under test": "IGROV1 ovarian", "TGI": "5.88 µM"}
{"Molecule": "O=[N+]([O-])c1ccc(C[P+]2(c3ccccc3)CCCCC2)cc1 (tested in a mixture with another compound)", "System under test": "IGROV1 ovarian", "TGI": "> 100 µM"}

----------
- Tested on: MALME-3M melanoma
- Assay details: NCI tumour cell line growth inhibition, 48 h
Collected TGI values appear next to each entry.

{"Compound": "O=C(c1ccccc1)c1nc2c(Cl)ccc(Cl)c2cc1C(Br)Br", "TGI": "5.66 µM"}
{"Compound": "CCN(Cc1ccc(Cl)c(Cl)c1)c1ccc2nc(N)nc(N)c2c1C", "TGI": "2.6 µM"}
{"Compound": "N.N.N.N.N#N.N#N.[Cl-].[Os+6]", "TGI": "> 100 µM"}
{"Compound": "CCCC(=O)OCC1OC(n2cc(F)c(=O)[nH]c2=O)CC1OC(=O)CCC (stereo unspecified)", "TGI": "> 10 µM"}
{"Compound": "Nc1cc(C2CCCc3c2[nH]c2ccccc32)ccc1O (stereo unspecified)", "TGI": "> 100 µM"}
{"Compound": "N#CC1=C(N)NC(=O)C(C#N)C12Nc1ccccc1S2 (stereo unspecified)", "TGI": "> 100 µM"}

----------
- Tested on: UACC-62 melanoma
- Assay details: NCI tumour cell line growth inhibition, 48 h

{"Chemical smiles": "COC(=O)CNC(=O)C(=O)c1c(O)c(O)c(C(C)C)c2cc(C)c(-c3c(C)cc4c(C(C)C)c(O)c(O)c(C(=O)C(=O)NCC(=O)OC)c4c3O)c(O)c12", "System under test": "UACC-62 melanoma", "GI50": "2230 nM"}
{"Chemical smiles": "COc1ccc(C2=Nn3c(nnc3-c3ccc(F)c(Cl)c3)SC2)cc1", "System under test": "UACC-62 melanoma", "GI50": "> 100000 nM"}
{"Chemical smiles": "O=C(CCN1CCCC1)Nc1ccc2c(Nc3ccc(F)cc3)c3ccccc3nc2c1", "System under test": "UACC-62 melanoma", "GI50": "1550 nM"}
{"Chemical smiles": "C[C@H]1C[C@@H](n2c(Nc3ccc(OC(F)(F)F)cc3)nc3cc(CCC(=O)O)ccc32)CC(C)(C)C1", "System under test": "UACC-62 melanoma", "GI50": "4910 nM"}
